The reported measurements were obtained from ChEMBL document CHEMBL1140354.

- System: BGC-823
- method.summary: In vitro antitumor activity against humanBGC-823 tumor cell line
- Format: functional, cell-based
- conditions: Homo sapiens
pIC50: −log10 of the molar value.
Documented pIC50 across a set of compounds
experimental.readout: pIC50

- structure: "Cc1c(N)nc([C@H](CC(N)=O)NC[C@H](N)C(N)=O)nc1C(=O)N[C@H](C(=O)N[C@H](C)[C@@H](O)[C@H](C)C(=O)N[C@H](C(=O)NCCc1nc(-c2nc(C(=O)NCCCNCCCCNC(=O)[C@H](CCCCN)NC(=O)[C@H](N)C(C)C)cs2)cs1)[C@@H](C)O)[C@@H](O[C@@H]1O[C@@H](CO)[C@@H](O)[C@H](O)[C@@H]1O[C@H]1O[C@H](CO)[C@@H](O)[C@H](OC(N)=O)[C@@H]1O)c1c[nH]cn1"
  value: 5.93
- structure: "Cc1c(N)nc([C@H](CC(N)=O)NC[C@H](N)C(N)=O)nc1C(=O)N[C@H](C(=O)N[C@H](C)[C@@H](O)[C@H](C)C(=O)N[C@H](C(=O)NCCc1nc(-c2nc(C(=O)NCCCNCCCCNC(=O)[C@@H](N)C(C)C)cs2)cs1)[C@@H](C)O)[C@@H](O[C@@H]1O[C@@H](CO)[C@@H](O)[C@H](O)[C@@H]1O[C@H]1O[C@H](CO)[C@@H](O)[C@H](OC(N)=O)[C@@H]1O)c1c[nH]cn1"
  value: 5.86

====

- System: Calf thymus DNA
- method.summary: Apparent binding constant to calf thymus DNA (CT-DNA)
- Assay type: nucleic-acid assay
- conditions: Bos taurus
experimental.readout: Kb

- structure: "Cc1c(N)nc([C@H](CC(N)=O)NC[C@H](N)C(N)=O)nc1C(=O)N[C@H](C(=O)N[C@H](C)[C@@H](O)[C@H](C)C(=O)N[C@H](C(=O)NCCc1nc(-c2nc(C(=O)NCCCNCCCCNC(=O)[C@H](N)C(C)C)cs2)cs1)[C@@H](C)O)[C@@H](O[C@@H]1O[C@@H](CO)[C@@H](O)[C@H](O)[C@@H]1O[C@H]1O[C@H](CO)[C@@H](O)[C@H](OC(N)=O)[C@@H]1O)c1c[nH]cn1"
  study.target: "Calf thymus DNA"
  value: 249000
- structure: "Cc1c(N)nc([C@H](CC(N)=O)NC[C@H](N)C(N)=O)nc1C(=O)N[C@H](C(=O)N[C@H](C)[C@@H](O)[C@H](C)C(=O)N[C@H](C(=O)NCCc1nc(-c2nc(C(=O)NCCCNCCCCNC(=O)[C@H](CCCCN)NC(=O)[C@H](N)C(C)C)cs2)cs1)[C@@H](C)O)[C@@H](O[C@@H]1O[C@@H](CO)[C@@H](O)[C@H](O)[C@@H]1O[C@H]1O[C@H](CO)[C@@H](O)[C@H](OC(N)=O)[C@@H]1O)c1c[nH]cn1"
  study.target: "Calf thymus DNA"
  value: 408000
- structure: "Cc1c(N)nc([C@H](CC(N)=O)NC[C@H](N)C(N)=O)nc1C(=O)N[C@H](C(=O)N[C@H](C)[C@@H](O)[C@H](C)C(=O)N[C@H](C(=O)NCCc1nc(-c2nc(C(=O)NCCCNCCCCNC(=O)[C@H](CCCCN)NC(=O)[C@@H](CC(C)C)NC(=O)[C@@H](N)C(C)C)cs2)cs1)[C@@H](C)O)[C@@H](O[C@@H]1O[C@@H](CO)[C@@H](O)[C@H](O)[C@@H]1O[C@H]1O[C@H](CO)[C@@H](O)[C@H](OC(N)=O)[C@@H]1O)c1c[nH]cn1"
  study.target: "Calf thymus DNA"
  value: 496000
- structure: "Cc1c(N)nc([C@H](CC(N)=O)NC[C@H](N)C(N)=O)nc1C(=O)N[C@H](C(=O)N[C@H](C)[C@@H](O)[C@H](C)C(=O)N[C@H](C(=O)NCCc1nc(-c2nc(C(=O)NCCCNCCCCNC(=O)[C@H](N)CC(C)C)cs2)cs1)[C@@H](C)O)[C@@H](O[C@@H]1O[C@@H](CO)[C@@H](O)[C@H](O)[C@@H]1O[C@H]1O[C@H](CO)[C@@H](O)[C@H](OC(N)=O)[C@@H]1O)c1c[nH]cn1"
  study.target: "Calf thymus DNA"
  value: 283000

====

- System: Nucleic Acid
- method.summary: Thermal denaturation alteration for calf thymus DNA (CT-DNA) binding to the compound was determined
- Type: functional
- conditions: Bos taurus
Assign labels as follows, please: T for ΔTm below 2 °C; F for ΔTm equal to or exceeding 2 °C.

- structure: "Cc1c(N)nc([C@H](CC(N)=O)NC[C@H](N)C(N)=O)nc1C(=O)N[C@H](C(=O)N[C@H](C)[C@@H](O)[C@H](C)C(=O)N[C@H](C(=O)NCCc1nc(-c2nc(C(=O)NCCCNCCCCNC(=O)[C@H](N)CCCCN)cs2)cs1)[C@@H](C)O)[C@@H](O[C@@H]1O[C@@H](CO)[C@@H](O)[C@H](O)[C@@H]1O[C@H]1O[C@H](CO)[C@@H](O)[C@H](OC(N)=O)[C@@H]1O)c1c[nH]cn1"
  answer.label: "F"
- structure: "Cc1c(N)nc([C@H](CC(N)=O)NC[C@H](N)C(N)=O)nc1C(=O)N[C@H](C(=O)N[C@H](C)[C@@H](O)[C@H](C)C(=O)N[C@H](C(=O)NCCc1nc(-c2nc(C(=O)NCCCNCCCCNC(=O)[C@H](CC(C)C)NC(=O)[C@H](N)C(C)C)cs2)cs1)[C@@H](C)O)[C@@H](O[C@@H]1O[C@@H](CO)[C@@H](O)[C@H](O)[C@@H]1O[C@H]1O[C@H](CO)[C@@H](O)[C@H](OC(N)=O)[C@@H]1O)c1c[nH]cn1"
  answer.label: "T"
- structure: "Cc1c(N)nc([C@H](CC(N)=O)NC[C@H](N)C(N)=O)nc1C(=O)N[C@H](C(=O)N[C@H](C)[C@@H](O)[C@H](C)C(=O)N[C@H](C(=O)NCCc1nc(-c2nc(C(=O)NCCCNCCCCNC(=O)[C@@H](N)C(C)C)cs2)cs1)[C@@H](C)O)[C@@H](O[C@@H]1O[C@@H](CO)[C@@H](O)[C@H](O)[C@@H]1O[C@H]1O[C@H](CO)[C@@H](O)[C@H](OC(N)=O)[C@@H]1O)c1c[nH]cn1"
  answer.label: "T"
- structure: "Cc1c(N)nc([C@H](CC(N)=O)NC[C@H](N)C(N)=O)nc1C(=O)N[C@H](C(=O)N[C@H](C)[C@@H](O)[C@H](C)C(=O)N[C@H](C(=O)NCCc1nc(-c2nc(C(=O)NCCCNCCCCNC(=O)[C@H](CCCCN)NC(=O)[C@H](N)C(C)C)cs2)cs1)[C@@H](C)O)[C@@H](O[C@@H]1O[C@@H](CO)[C@@H](O)[C@H](O)[C@@H]1O[C@H]1O[C@H](CO)[C@@H](O)[C@H](OC(N)=O)[C@@H]1O)c1c[nH]cn1"
  answer.label: "F"
- structure: "Cc1c(N)nc([C@H](CC(N)=O)NC[C@H](N)C(N)=O)nc1C(=O)N[C@H](C(=O)N[C@H](C)[C@@H](O)[C@H](C)C(=O)N[C@H](C(=O)NCCc1nc(-c2nc(C(=O)NCCCNCCCCNC(=O)[C@H](CCCCN)NC(=O)[C@@H](N)C(C)C)cs2)cs1)[C@@H](C)O)[C@@H](O[C@@H]1O[C@@H](CO)[C@@H](O)[C@H](O)[C@@H]1O[C@H]1O[C@H](CO)[C@@H](O)[C@H](OC(N)=O)[C@@H]1O)c1c[nH]cn1"
  answer.label: "F"
- structure: "Cc1c(N)nc([C@H](CC(N)=O)NC[C@H](N)C(N)=O)nc1C(=O)N[C@H](C(=O)N[C@H](C)[C@@H](O)[C@H](C)C(=O)N[C@H](C(=O)NCCc1nc(-c2nc(C(=O)NCCCNCCCCNC(=O)[C@H](CC(C)C)NC(=O)[C@@H](N)C(C)C)cs2)cs1)[C@@H](C)O)[C@@H](O[C@@H]1O[C@@H](CO)[C@@H](O)[C@@H](O)[C@@H]1O[C@H]1O[C@H](CO)[C@@H](O)[C@H](OC(N)=O)[C@@H]1O)c1c[nH]cn1"
  answer.label: "T"
- structure: "Cc1c(N)nc([C@H](CC(N)=O)NC[C@H](N)C(N)=O)nc1C(=O)N[C@H](C(=O)N[C@H](C)[C@@H](O)[C@H](C)C(=O)N[C@H](C(=O)NCCc1nc(-c2nc(C(=O)NCCCNCCCCNC(=O)[C@H](N)CC(C)C)cs2)cs1)[C@@H](C)O)[C@@H](O[C@@H]1O[C@@H](CO)[C@@H](O)[C@H](O)[C@@H]1O[C@H]1O[C@H](CO)[C@@H](O)[C@H](OC(N)=O)[C@@H]1O)c1c[nH]cn1"
  answer.label: "T"
- structure: "Cc1c(N)nc([C@H](CC(N)=O)NC[C@H](N)C(N)=O)nc1C(=O)N[C@H](C(=O)N[C@H](C)[C@@H](O)[C@H](C)C(=O)N[C@H](C(=O)NCCc1nc(-c2nc(C(=O)NCCCNCCCCNC(=O)[C@H](N)C(C)C)cs2)cs1)[C@@H](C)O)[C@@H](O[C@@H]1O[C@@H](CO)[C@@H](O)[C@H](O)[C@@H]1O[C@H]1O[C@H](CO)[C@@H](O)[C@H](OC(N)=O)[C@@H]1O)c1c[nH]cn1"
  answer.label: "T"
- structure: "Cc1c(N)nc([C@H](CC(N)=O)NC[C@H](N)C(N)=O)nc1C(=O)N[C@H](C(=O)N[C@H](C)[C@@H](O)[C@H](C)C(=O)N[C@H](C(=O)NCCc1nc(-c2nc(C(=O)NCCCNCCCCN)cs2)cs1)[C@@H](C)O)[C@@H](O[C@@H]1O[C@@H](CO)[C@@H](O)[C@@H](O)[C@@H]1O[C@H]1O[C@H](CO)[C@@H](O)[C@H](OC(N)=O)[C@@H]1O)c1c[nH]cn1"
  answer.label: "F"
- structure: "Cc1c(N)nc([C@H](CC(N)=O)NC[C@H](N)C(N)=O)nc1C(=O)N[C@H](C(=O)N[C@H](C)[C@@H](O)[C@H](C)C(=O)N[C@H](C(=O)NCCc1nc(-c2nc(C(=O)NCCCNCCCCNC(=O)[C@H](CCCCN)NC(=O)[C@@H](CC(C)C)NC(=O)[C@@H](N)C(C)C)cs2)cs1)[C@@H](C)O)[C@@H](O[C@@H]1O[C@@H](CO)[C@@H](O)[C@H](O)[C@@H]1O[C@H]1O[C@H](CO)[C@@H](O)[C@H](OC(N)=O)[C@@H]1O)c1c[nH]cn1"
  answer.label: "F"
